- Tested on: Staphylococcus capitis
- procedure.text: Antibacterial activity against methicillin resistant coagulase-negative Staphylococcus capitis clinical isolate by broth microdilution method
- Format: functional
Reported MIC50 values follow for various compounds
Answer with a number only, understood to be in µg/mL.

CC(=O)N[C@@H]1[C@H](Oc2c3cc4cc2Oc2ccc(cc2Cl)[C@@H](O[C@@H]2O[C@@H](CO)[C@@H](O)[C@H](O)[C@@H]2NC(C)=O)[C@@H]2NC(=O)[C@H](NC(=O)[C@@H]4NC(=O)[C@H]4NC(=O)[C@@H](Cc5ccc(c(Cl)c5)O3)NC(=O)[C@H](N)c3ccc(O)c(c3)Oc3cc(O)cc4c3)c3ccc(O)c(c3)-c3c(O[C@H]4O[C@H](CO)[C@@H](O)[C@@H](O)[C@@H]4O)cc(O)cc3[C@@H](C(=O)O)NC2=O)O[C@@H](CO)[C@@H](O)[C@@H]1O
4

Input `CCCCCCCCCCNCCN[C@@]1(C)C[C@H](O[C@H]2[C@H](Oc3c4cc5cc3Oc3ccc(cc3Cl)[C@@H](O)[C@@H](NC(=O)[C@@H](CC(C)C)NC)C(=O)N[C@@H](CC(N)=O)C(=O)N[C@H]5C(=O)N[C@H]3C(=O)N[C@H](C(=O)N[C@H](C(=O)O)c5cc(O)c(CNCP(=O)(O)O)c(O)c5-c5cc3ccc5O)[C@H](O)c3ccc(c(Cl)c3)O4)O[C@H](CO)[C@@H](O)[C@@H]2O)O[C@@H](C)[C@H]1O` , output reported MIC50.
0.5

* * *

- Test system: Streptococcus oralis
- procedure.text: Antibacterial activity against Streptococcus oralis clinical isolate assessed as susceptibility level by broth microdilution method
- Format: functional
Reported Activity values follow for various molecules
Answer with a number only, understood to be in %.

// solved cases for Activity follow
CCC[C@@H]1C[C@@H](C(=O)N[C@@H]([C@H]2O[C@H](SC)[C@H](O)[C@@H](O)[C@H]2O)[C@H](C)Cl)N(C)C1 [CLINDAMYCIN]
88
CC1(C)S[C@@H]2[C@H](NC(=O)Cc3ccccc3)C(=O)N2[C@H]1C(=O)O [PENICILLIN G]
62
CCCCCCCCCC(=O)N[C@@H](Cc1c[nH]c2ccccc12)C(=O)N[C@H](CC(N)=O)C(=O)N[C@@H](CC(=O)O)C(=O)N[C@@H]1C(=O)NCC(=O)N[C@@H](CCCN)C(=O)N[C@@H](CC(=O)O)C(=O)N[C@H](C)C(=O)N[C@@H](CC(=O)O)C(=O)NCC(=O)N[C@H](CO)C(=O)N[C@@H]([C@H](C)CC(=O)O)C(=O)N[C@@H](CC(=O)c2ccccc2N)C(=O)O[C@@H]1C
100
CC[C@H]1OC(=O)[C@H](C)[C@@H](O[C@H]2C[C@@](C)(OC)[C@@H](O)[C@H](C)O2)[C@H](C)[C@@H](O[C@@H]2O[C@H](C)C[C@H](N(C)C)[C@H]2O)[C@](C)(O)C[C@@H](C)C(=O)[C@H](C)[C@@H](O)[C@]1(C)O [ERYTHROMYCIN]
63

Input CC(=O)NC[C@H]1CN(c2ccc(N3CCOCC3)c(F)c2)C(=O)O1 [LINEZOLID] , output reported Activity.
100

Input CN(C)[C@@H]1C(O)=C(C(N)=O)C(=O)[C@@]2(O)C(O)=C3C(=O)c4c(O)cccc4[C@@](C)(O)[C@H]3C[C@@H]12 [TETRACYCLINE] , output reported Activity.
75

Input CN[C@H](CC(C)C)C(=O)N[C@H]1C(=O)N[C@@H](CC(N)=O)C(=O)N[C@H]2C(=O)N[C@H]3C(=O)N[C@H](C(=O)N[C@H](C(=O)O)c4cc(O)cc(O)c4-c4cc3ccc4O)[C@H](O)c3ccc(c(Cl)c3)Oc3cc2cc(c3O[C@@H]2O[C@H](CO)[C@@H](O)[C@H](O)[C@H]2O[C@H]2C[C@](C)(N)[C@H](O)[C@H](C)O2)Oc2ccc(cc2Cl)[C@H]1O [VANCOMYCIN] , output reported Activity.
100

Input C[C@H]1COc2c(N3CCN(C)CC3)c(F)cc3c(=O)c(C(=O)O)cn1c23.C[C@H]1COc2c(N3CCN(C)CC3)c(F)cc3c(=O)c(C(=O)O)cn1c23.O [LEVOFLOXACIN] , output reported Activity.
100

Input CO/N=C(\C(=O)N[C@@H]1C(=O)N2C(C(=O)O)=C(CSc3nc(=O)c(O)nn3C)CS[C@H]12)c1csc(N)n1 [CEFTRIAXONE] , output reported Activity.
75

* * *

- Tested on: Enterococcus faecium
- procedure.text: Antibacterial activity against vancomycin resistant Enterococcus faecium VanA clinical isolate by broth microdilution method
- Format: functional
quantity.kind: MIC90

Report MIC90 under test system Enterococcus faecium for `CC(=O)N[C@@H]1[C@H](Oc2c3cc4cc2Oc2ccc(cc2Cl)[C@@H](O[C@@H]2O[C@@H](CO)[C@@H](O)[C@H](O)[C@@H]2NC(C)=O)[C@@H]2NC(=O)[C@H](NC(=O)[C@@H]4NC(=O)[C@H]4NC(=O)[C@@H](Cc5ccc(c(Cl)c5)O3)NC(=O)[C@H](N)c3ccc(O)c(c3)Oc3cc(O)cc4c3)c3ccc(O)c(c3)-c3c(O[C@H]4O[C@H](CO)[C@@H](O)[C@@H](O)[C@@H]4O)cc(O)cc3[C@@H](C(=O)O)NC2=O)O[C@@H](CO)[C@@H](O)[C@@H]1O` .
> 128 µg/mL

* * *

Reported MIC50 values follow for various molecules
- System: Staphylococcus capitis
- procedure.text: Antibacterial activity against methicillin resistant coagulase-negative Staphylococcus capitis clinical isolate by broth microdilution method
- Assay type: functional
Answer with a number only, understood to be in µg/mL.

// solved cases for MIC50 follow
CN[C@H](CC(C)C)C(=O)N[C@H]1C(=O)N[C@@H](CC(N)=O)C(=O)N[C@H]2C(=O)N[C@H]3C(=O)N[C@H](C(=O)N[C@H](C(=O)O)c4cc(O)cc(O)c4-c4cc3ccc4O)[C@H](O)c3ccc(c(Cl)c3)Oc3cc2cc(c3O[C@@H]2O[C@H](CO)[C@@H](O)[C@H](O)[C@H]2O[C@H]2C[C@](C)(N)[C@H](O)[C@H](C)O2)Oc2ccc(cc2Cl)[C@H]1O
2
CCCCCCCCCC(=O)N[C@@H](Cc1c[nH]c2ccccc12)C(=O)N[C@H](CC(N)=O)C(=O)N[C@@H](CC(=O)O)C(=O)N[C@@H]1C(=O)NCC(=O)N[C@@H](CCCN)C(=O)N[C@@H](CC(=O)O)C(=O)N[C@H](C)C(=O)N[C@@H](CC(=O)O)C(=O)NCC(=O)N[C@H](CO)C(=O)N[C@@H]([C@H](C)CC(=O)O)C(=O)N[C@@H](CC(=O)c2ccccc2N)C(=O)O[C@@H]1C
0.25

Input `CC(=O)NC[C@H]1CN(c2ccc(N3CCOCC3)c(F)c2)C(=O)O1` , output reported MIC50.
1

* * *

Reported MIC50 values follow for various molecules
- Tested on: Streptococcus pyogenes
- procedure.text: Antibacterial activity against Streptococcus pyogenes group A clinical isolate by broth microdilution method
- Assay type: functional
Answer with a number only, understood to be in µg/mL.

// solved cases for MIC50 follow
CCCCCCCCCCNCCN[C@@]1(C)C[C@H](O[C@H]2[C@H](Oc3c4cc5cc3Oc3ccc(cc3Cl)[C@@H](O)[C@@H](NC(=O)[C@@H](CC(C)C)NC)C(=O)N[C@@H](CC(N)=O)C(=O)N[C@H]5C(=O)N[C@H]3C(=O)N[C@H](C(=O)N[C@H](C(=O)O)c5cc(O)c(CNCP(=O)(O)O)c(O)c5-c5cc3ccc5O)[C@H](O)c3ccc(c(Cl)c3)O4)O[C@H](CO)[C@@H](O)[C@@H]2O)O[C@@H](C)[C@H]1O
0.03
CC[C@H]1OC(=O)[C@H](C)C(=O)[C@H](C)[C@@H](O[C@@H]2O[C@H](C)C[C@H](N(C)C)[C@H]2O)[C@](C)(OC)C[C@@H](C)C(=O)[C@H](C)[C@H]2N(CCCCn3cnc(-c4cccnc4)c3)C(=O)O[C@]12C
0.015
C[C@H]1COc2c(N3CCN(C)CC3)c(F)cc3c(=O)c(C(=O)O)cn1c23.C[C@H]1COc2c(N3CCN(C)CC3)c(F)cc3c(=O)c(C(=O)O)cn1c23.O
0.5

Continue with the molecule presented below.
Report MIC50 under test system Streptococcus pyogenes for `CN[C@H](CC(C)C)C(=O)N[C@H]1C(=O)N[C@@H](CC(N)=O)C(=O)N[C@H]2C(=O)N[C@H]3C(=O)N[C@H](C(=O)N[C@H](C(=O)O)c4cc(O)cc(O)c4-c4cc3ccc4O)[C@H](O)c3ccc(c(Cl)c3)Oc3cc2cc(c3O[C@@H]2O[C@H](CO)[C@@H](O)[C@H](O)[C@H]2O[C@H]2C[C@](C)(N)[C@H](O)[C@H](C)O2)Oc2ccc(cc2Cl)[C@H]1O` .
0.25

This collection of values is drawn from ChEMBL document CHEMBL1275440.
